experimental.target: transthyretin Ile122 (Homo sapiens, UniProt P02766)
experiment: Displacement of 125I-T4 from transthyretin in whole serum
condition.description: read-out: IC50 for displacement of T4 from transthyretin Ile122 in serum; whole serum of heterozygous subjects, mean
endpoint.label: pIC50
Just the number, please; pIC50 means minus log10 of the concentration in mol/L.

Query block: Sample `O=C(O)c1ccccc1Nc1cc(Cl)c(OCCCCCCCCCCCOc2c(Cl)cc(Nc3ccccc3C(=O)O)cc2Cl)c(Cl)c1` — what was its pIC50?
Result block: 4.53

====

experimental.target: transthyretin Tyr77 (Homo sapiens, UniProt P02766, S97Y)
Construct: The displacement of T4 from transthyretin in whole serum
experiment: Displacement of 125I-T4 from transthyretin in whole serum
condition.description: whole serum of heterozygous subjects, mean
endpoint.label: IC50 (µM)
Entry rule: numbers only, all in µM.

Query block: Sample O=C(O)c1ccccc1Nc1cc(Cl)c(OCCCCCCCCCCCOc2c(Cl)cc(Nc3ccccc3C(=O)O)cc2Cl)c(Cl)c1 [4ajm15] — what was its IC50?
Result block: 26.2

====

experimental.target: transthyretin Met30 (Homo sapiens, UniProt P02766)
experiment: Displacement of 125I-T4 from transthyretin in whole serum
Assay type: binding
condition.description: read-out: IC50 for displacement of T4 from transthyretin Met30 in serum; whole serum of heterozygous subjects, mean
endpoint.label: pIC50
Just the number, please; pIC50 means minus log10 of the concentration in mol/L.

Query block: Missing value: pIC50, transthyretin Met30 (Homo sapiens, UniProt P02766), entry `O=C(O)c1ccccc1Nc1cc(Cl)c(OCCCCCCCCCCCOc2c(Cl)cc(Nc3ccccc3C(=O)O)cc2Cl)c(Cl)c1` . Fill in?
Result block: 4.21

====

experimental.target: transthyretin Ala60 (Homo sapiens)
experiment: Displacement of 125I-T4 from transthyretin in whole serum
condition.description: read-out: IC50 for displacement of T4 from transthyretin Ala60 in serum; whole serum of heterozygous subjects, mean
endpoint.label: IC50 (µM)
Entry rule: numbers only, all in µM.

Query block: Sample `O=C(O)c1ccccc1Nc1cc(Cl)c(OCCCCCCCCCCCOc2c(Cl)cc(Nc3ccccc3C(=O)O)cc2Cl)c(Cl)c1` — what was its IC50?
Result block: 26.5

Provenance of the data: patent US8236984B2
